# credit: BindingDB's records for patent US20250179094

Each entry below carries its measured IC50, system: TGF-beta receptor type-1 (Homo sapiens).
Sequence (P36897 whole entry): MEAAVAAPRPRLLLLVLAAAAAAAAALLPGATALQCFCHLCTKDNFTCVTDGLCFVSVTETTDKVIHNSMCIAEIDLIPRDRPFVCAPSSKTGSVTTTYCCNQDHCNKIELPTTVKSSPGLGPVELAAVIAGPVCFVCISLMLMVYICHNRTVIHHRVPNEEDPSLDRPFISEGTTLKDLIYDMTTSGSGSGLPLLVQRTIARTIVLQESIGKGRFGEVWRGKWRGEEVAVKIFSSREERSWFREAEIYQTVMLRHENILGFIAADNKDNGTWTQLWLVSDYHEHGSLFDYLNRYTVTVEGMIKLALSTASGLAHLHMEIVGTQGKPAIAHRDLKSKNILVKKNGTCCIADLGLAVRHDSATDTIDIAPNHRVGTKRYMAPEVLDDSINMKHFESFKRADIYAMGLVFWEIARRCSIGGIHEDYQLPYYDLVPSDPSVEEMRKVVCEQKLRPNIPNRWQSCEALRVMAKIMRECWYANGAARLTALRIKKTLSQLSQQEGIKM
Hi! Could you send only the number? It should be in nM, unit omitted.

Sample records with IC50:
{"columns": ["compound", "experimental readout", "reading"],
 "data": [
  ["Cc1cccc(-c2nc3n(c2-c2ccnc(-c4nc5c([nH]4)CN(C(=O)N4CCC(O)CC4)C5)c2)CCC3)n1 [US20250179094, Compound 27]", "IC50", 4.3],
  ["Cc1cccc(-c2nn3c(c2-c2ccnc(-c4nc5c([nH]4)CN(C(=O)N4CCC(O)CC4)C5)c2)CCC3)n1 [US20250179094, Compound 70]", "IC50", 2.3],
  ["Cc1cccc(-c2nc[nH]c2-c2ccnc(-c3nc4c([nH]3)CN(C(=O)N3CCCC3)C4)c2)n1 [US20250179094, Compound 6]", "IC50", 22],
  ["Cc1cccc(-c2nn(CC3CC3)cc2-c2ccnc(-c3nc4c([nH]3)CN(C(=O)N3CCN(C)CC3)C4)c2)n1 [US20250179094, Compound 43]", "IC50", 2.7],
  ["Cc1cccc(-c2nc3n(c2-c2ccnc(-c4nc5c([nH]4)CN(C(=O)N4CC[C@@H](O)C4)C5)c2)CCC3)n1 [US20250179094, Compound 15]", "IC50", 16],
  ["Cc1cccc(-c2nn(Cc3ccccc3)cc2-c2ccnc(-c3nc4c([nH]3)CN(C(=O)C3CC(O)C3)C4)c2)n1 (stereo not given) [US20250179094, Compound 56]", "IC50", 23],
  ["Cc1cccc(-c2nn3c(c2-c2ccnc(-c4nc5c([nH]4)CN(C(=O)N4CCN(C)CC4)C5)c2)CCC3)n1 [US20250179094, Compound 62]", "IC50", 0.9],
  ["Cc1cccc(-c2nc3n(c2-c2ccnc(-c4nc5c([nH]4)CN(C(=O)N4CC[C@@H](N(C)C)C4)C5)c2)CCC3)n1 [US20250179094, Compound 34]", "IC50", 1.9],
  ["Cc1cccc(-c2nc3n(c2-c2ccnc(-c4nc5c([nH]4)CN(C(=O)N4CCOCC4)C5)c2)CCC3)n1 [US20250179094, Compound 33]", "IC50", 1.7]
]}

We next turn to a different compound, shown below.
Reported IC50 for Cc1cccc(-c2nn(Cc3cccc(F)c3)cc2-c2ccnc(-c3nc4c([nH]3)CN(C(=O)N3CCN(C)CC3)C4)c2)n1 [US20250179094, Compound 40] : what is it?
1.6
